# Procedure Details: Intrinsic clearance in human liver microsomes measured per gm of protein
# Format: ADME, Microsome
Recorded Endpoint: CLH (mL/min/g)
Answer with a number only, understood to be in mL/min/g.

Entry Nc1cccc2c1CN(C1CCC(=O)NC1=O)C2=O (stereo unspecified) [LENALIDOMIDE] ; CLH = 1.8

* * *

# Procedure Details: Half-life in human liver microsomes
# Type: ADME, Microsome
Recorded Endpoint: half-life

Entry Nc1cccc2c1CN(C1CCC(=O)NC1=O)C2=O (stereo unspecified) [LENALIDOMIDE] ; half-life = 19.3 h
